Assay: clinical
Conditions: male, human, in vivo, Tmax, plasma, after 500 g mango flesh, healthy men, n = 12, mean ± SD
Protocol: Phenolics in plasma were quantified according to the method of Chen, Milbury, Lapsley, and Blumberg. […] Subsequently, phenolics were extracted with acetonitrile. […] Results are expressed as mean ± standard deviation (SD). […] The area under the concentration-time curve (AUC) of plasma phenolics was calculated using the linear trapezoidal integration equation [24]. […]
observable: Tmax (h)
Please respond with the number in h and leave the unit unwritten.

(Q) Fill in reported Tmax for this entry: O=C(O)c1cc(O)c(O)c(O)c1 [Gallic acid, gallic acid]
(A) 4.4

----------
experiment: Urinary excretion (0–24 h) of phenolic compounds after 'Ataulfo' mango flesh or juice, HPLC-ECD; conditions: after mango flesh and juice consumption, 0–24 h
observable: detection in urine

Consider the following illustrative entries.
molecule	observable	result
COc1cc(C(=O)O)ccc1O [Vanillic acid, vanillic acid]	detection in urine	detected in urine
O=C(O)c1cc(O)ccc1O [Gentisic acid, gentisic acid]	detection in urine	not in urine
COc1cc(/C=C/C(=O)O)ccc1O [Ferulic acid, ferulic acid]	detection in urine	detected in urine
O=C(O)/C=C/c1ccc(O)cc1 [p-coumaric acid]	detection in urine	detected in urine

(Q) Fill in reported detection in urine for this entry: O=C(O)c1ccc(O)c(O)c1 [Protocatechuic acid, protocatechuic acid]
(A) not in urine
